- Tested on: human SMAD7 mRNA
- PROTOCOL_DESCRIPTION: Antisense inhibition of human SMAD7 mRNA expression in Hep3B cells by 3-10-3 cEt gapmers, 10,000 nM, electroporation (Example 2)
- Type: cell-based
- CONDITION_CONTEXT: Hep3B cells, electroporation, 10,000 nM antisense oligonucleotide, approximately 24 hours, RTS5062, relative to untreated control cells
Strand notation (5' to 3'): a small letter for the sugar, then the base; units joined by * are phosphorothioate-linked, units joined directly phosphodiester-linked; [ ] holds rarer units or linkages, { } end groups; capitals alone tell only the bases. k = constrained ethyl (cEt); [5mC] = 5-methylcytosine; d = 2'-deoxy (DNA)
For each entry below, report its % inhibition of SMAD7 mRNA expression value.
One number for each entry, in %.

The cases that follow already have their % inhibition of SMAD7 mRNA expression on record.
> print(dat)
                                  substance                        measured.metric  value.reported
1  799737 (antisense k[5mC]*kT*kT*dA*dG*dA*dG*dT*dA*dT*dA*dA*dA*kT*kA*k[5mC]) [compound 799737]  % inhibition of SMAD7 mRNA expression               5
2  799759 (antisense kA*k[5mC]*k[5mC]*dA*dT*dA*dT*d[5mC]*dA*d[5mC]*dT*d[5mC]*d[5mC]*kT*kT*k[5mC]) [compound 799759]  % inhibition of SMAD7 mRNA expression              66
3  799280 (antisense kA*kG*k[5mC]*dA*d[5mC]*d[5mC]*dT*dT*dG*dT*d[5mC]*dA*d[5mC]*k[5mC]*k[5mC]*kG) [compound 799280]  % inhibition of SMAD7 mRNA expression              44

Give measured % inhibition of SMAD7 mRNA expression for every item shown.
1. 799658 (antisense kA*kA*k[5mC]*dT*dA*d[5mC]*dA*dA*dG*dT*dG*dG*dT*kT*kG*k[5mC]) [compound 799658]
2. 799632 (k[5mC]*kT*kG*d[5mC]*d[5mC]*dA*dA*dA*dT*d[5mC]*dA*d[5mC]*dA*kA*kA*kG; antisense) [compound 799632]
3. 799713 (antisense k[5mC]*kA*k[5mC]*dA*dA*dT*d[5mC]*dA*d[5mC]*dT*dG*dT*dT*k[5mC]*k[5mC]*kT) [compound 799713]
4. 799717 (antisense kG*k[5mC]*kA*dG*dG*d[5mC]*dT*dA*d[5mC]*d[5mC]*dA*dG*d[5mC]*k[5mC]*kT*kT) [compound 799717]
5. 799519 (antisense kA*kA*k[5mC]*dT*dT*dA*dA*dG*dT*dA*dG*dA*dG*k[5mC]*kA*kA) [compound 799519]
6. 798806 (kT*kG*kA*dA*dA*dG*d[5mC]*d[5mC]*d[5mC]*d[5mC]*d[5mC]*d[5mC]*dA*kG*kG*kG; antisense) [compound 798806]
7. 799580 (kA*kA*kA*d[5mC]*d[5mC]*dT*dT*d[5mC]*d[5mC]*dG*dA*dA*dA*kG*kG*kA; antisense) [compound 799580]
8. 799772 (k[5mC]*kG*k[5mC]*d[5mC]*dG*d[5mC]*dG*dG*d[5mC]*dA*dT*dA*dT*kG*k[5mC]*k[5mC]; antisense) [compound 799772]

22
48
0
0
44
50
33
30

Parameter requested: % inhibition of SMAD7 mRNA expression. Apply to each item below.
1. 799270 (antisense kA*kG*kT*d[5mC]*dA*dG*dG*d[5mC]*dT*d[5mC]*dA*dA*dT*kG*kA*kG) [compound 799270]
2. 799304 (antisense kG*kA*kA*dA*dG*dA*d[5mC]*dA*dA*dA*d[5mC]*d[5mC]*dA*k[5mC]*kA*k[5mC]) [compound 799304]
3. 799516 (antisense k[5mC]*kA*k[5mC]*d[5mC]*dA*dG*dA*dT*d[5mC]*dA*dA*dG*dA*k[5mC]*kA*kG) [compound 799516]
4. 799735 (antisense kT*k[5mC]*k[5mC]*dA*d[5mC]*dG*dG*dG*dA*dG*dT*dG*dG*kA*kA*kG) [compound 799735]

16
54
0
0

Would you be so kind as to report % inhibition of SMAD7 mRNA expression for each listed record?
1. 799538 (kT*kG*k[5mC]*dA*dG*dG*dA*dT*dG*dA*dG*dG*dA*kG*k[5mC]*kT; antisense) [compound 799538]
2. 799701 (antisense k[5mC]*kT*kA*d[5mC]*dA*dG*dT*dT*d[5mC]*d[5mC]*dA*dG*dA*kA*k[5mC]*kA) [compound 799701]

1: 29; 2: 46

Need % inhibition of SMAD7 mRNA expression for each of these substances.
1. 799695 (antisense k[5mC]*k[5mC]*kA*dG*dG*dA*dA*d[5mC]*d[5mC]*dA*dG*d[5mC]*dA*k[5mC]*kT*kT) [compound 799695]
2. 799679 (antisense k[5mC]*kT*kG*d[5mC]*dA*dG*dG*dG*dT*dA*d[5mC]*dT*dA*kA*kG*kG) [compound 799679]
3. 799792 (kA*k[5mC]*k[5mC]*dA*dA*dA*dA*d[5mC]*d[5mC]*d[5mC]*dG*dG*dG*kA*kG*kA; antisense) [compound 799792]
4. 799305 (antisense k[5mC]*kA*kT*dG*dA*dA*dA*dG*dA*d[5mC]*dA*dA*dA*k[5mC]*k[5mC]*kA) [compound 799305]
5. 799499 (antisense kT*k[5mC]*k[5mC]*dT*dT*dT*dA*dG*dT*dG*dG*d[5mC]*d[5mC]*kT*kA*k[5mC]) [compound 799499]
6. 799753 (antisense k[5mC]*kG*kT*dG*dA*dG*dT*dA*dA*dA*dT*dT*d[5mC]*kT*kT*kA) [compound 799753]
7. 799614 (kG*kG*k[5mC]*d[5mC]*dT*dT*dT*dG*dA*dG*d[5mC]*dA*d[5mC]*kA*k[5mC]*k[5mC]; antisense) [compound 799614]

1. 6
2. 0
3. 31
4. 0
5. 54
6. 69
7. 37

----------
Please go through the items and note down their % Inhibition.
- System: human SMAD7 mRNA
- PROTOCOL_DESCRIPTION: Antisense inhibition of human SMAD7 mRNA expression in Hep3B cells by 3-10-3 cEt gapmers, 10,000 nM, electroporation (Example 2)
- Assay type: cell-based
- CONDITION_CONTEXT: Hep3B cells, electroporation with 10,000 nM antisense oligonucleotide, approximately 24 hours, primer probe set RTS5062, relative to untreated control cells
Strand notation (5' to 3'): a small letter for the sugar, then the base; units joined by * are phosphorothioate-linked, units joined directly phosphodiester-linked; [ ] holds rarer units or linkages, { } end groups; capitals alone tell only the bases. k = constrained ethyl (cEt); [5mC] = 5-methylcytosine; d = 2'-deoxy (DNA)

Field: example entries. Status: answers known.
> print(dat)
                                  substance  value.reported
1  798995 (antisense kA*k[5mC]*kT*d[5mC]*dA*d[5mC]*dA*d[5mC]*dT*d[5mC]*dA*d[5mC]*dA*k[5mC]*kA*k[5mC]) [compound 798995]              0%
2  799013 (kT*k[5mC]*k[5mC]*dA*dT*dA*dA*dG*dA*dG*dA*d[5mC]*dA*k[5mC]*kA*kA; antisense) [compound 799013]             37%

As a next step, examine the substance that follows.
Given the substance 799036 (kA*kG*k[5mC]*d[5mC]*dG*d[5mC]*d[5mC]*dA*dG*d[5mC]*dT*dT*dG*k[5mC]*k[5mC]*k[5mC]; antisense) [compound 799036] and test system human SMAD7 mRNA, the measured % Inhibition is 8%

----------
- Tested on: human SMAD7 mRNA
- PROTOCOL_DESCRIPTION: Antisense inhibition of human SMAD7 mRNA expression in Hep3B cells by 3-10-3 cEt gapmers, 10,000 nM, electroporation (Example 2)
- Assay type: cell-based
- CONDITION_CONTEXT: Hep3B cells, electroporation with 10,000 nM antisense oligonucleotide, approximately 24 hours, primer probe set RTS5062, relative to untreated control cells
Strand notation (5' to 3'): a small letter for the sugar, then the base; units joined by * are phosphorothioate-linked, units joined directly phosphodiester-linked; [ ] holds rarer units or linkages, { } end groups; capitals alone tell only the bases. k = constrained ethyl (cEt); [5mC] = 5-methylcytosine; d = 2'-deoxy (DNA)
MEASURED_METRIC: % Inhibition (%)
Numbers only, in %.

Field: % Inhibition. Fill in for each record below.
1. 799137 (antisense kA*kA*kT*d[5mC]*d[5mC]*dT*dT*d[5mC]*dT*dT*dG*dG*dA*kG*kG*kG) [compound 799137]
2. 798978 (antisense kT*kT*kT*dG*dG*dT*dG*dG*dT*dG*d[5mC]*dT*dT*kG*kG*kA) [compound 798978]
3. 799161 (antisense k[5mC]*kA*kT*dA*d[5mC]*dG*dA*dG*dT*dG*dT*dA*dT*kG*kA*kG) [compound 799161]
4. 799035 (k[5mC]*kG*k[5mC]*d[5mC]*dA*dG*d[5mC]*dT*dT*dG*d[5mC]*d[5mC]*d[5mC]*kA*kG*kG; antisense) [compound 799035]
5. 799195 (antisense k[5mC]*kA*kA*dT*dG*d[5mC]*dT*dA*dA*dA*dT*dT*dT*k[5mC]*k[5mC]*kA) [compound 799195]

[49, 25, 29, 0, 43]

Look at each substance and report its % Inhibition.
1. 799162 (antisense kT*kA*kT*d[5mC]*dA*dT*dA*d[5mC]*dG*dA*dG*dT*dG*kT*kA*kT) [compound 799162]
2. 799174 (antisense kA*kG*kT*d[5mC]*dT*dA*dA*dA*d[5mC]*dA*dT*dG*d[5mC]*kT*k[5mC]*kA) [compound 799174]
3. 799138 (antisense k[5mC]*k[5mC]*kA*dA*dA*dT*d[5mC]*d[5mC]*dT*dT*d[5mC]*dT*dT*kG*kG*kA) [compound 799138]
4. 799140 (antisense kT*kG*kA*d[5mC]*dG*dG*dA*d[5mC]*d[5mC]*dA*dA*dA*dT*k[5mC]*k[5mC]*kT) [compound 799140]
5. 798954 (antisense kA*kT*kA*dA*dG*d[5mC]*dT*dA*dT*dT*dT*d[5mC]*dT*k[5mC]*kA*kA) [compound 798954]
6. 799194 (antisense kT*kG*k[5mC]*dT*dA*dA*dA*dT*dT*dT*d[5mC]*d[5mC]*dA*kA*kT*kG) [compound 799194]
7. 799080 (antisense kA*kG*kG*dG*dA*dG*dA*dT*d[5mC]*d[5mC]*dA*dG*dG*kA*kG*k[5mC]) [compound 799080]

36
42
7
60
54
42
56

Take each entry in turn and give its % Inhibition.
1. 799220 (kA*kA*kT*dT*dT*dG*dG*d[5mC]*dA*dT*dT*dT*dG*kT*kT*kA; antisense) [compound 799220]
2. 799142 (antisense kG*kG*kG*dT*dT*dA*dT*dG*dA*d[5mC]*dG*dG*dA*k[5mC]*k[5mC]*kA) [compound 799142]
3. 798939 (antisense kA*k[5mC]*kG*dA*d[5mC]*d[5mC]*dA*dA*dA*dG*dA*dG*dT*kT*kT*kG) [compound 798939]
4. 799222 (k[5mC]*kT*kT*dT*dT*dT*dT*dA*dA*dT*dT*dT*dG*kG*k[5mC]*kA; antisense) [compound 799222]

1: 0; 2: 38; 3: 46; 4: 0

Report % Inhibition for each item below.
1. 790614 (kG*kA*kG*dA*dA*dT*dG*d[5mC]*dT*dT*d[5mC]*dT*d[5mC]*kT*kT*kG; antisense) [compound 790614]
2. 799193 (antisense kT*kA*kA*dA*dT*dT*dT*d[5mC]*d[5mC]*dA*dA*dT*dG*kA*kG*kA) [compound 799193]
3. 799223 (kA*kT*k[5mC]*dT*dT*dG*dT*dG*dT*dT*dT*dA*dT*k[5mC]*kT*kT; antisense) [compound 799223]
4. 799019 (kA*k[5mC]*kT*dG*d[5mC]*dA*dA*dA*d[5mC]*d[5mC]*dT*d[5mC]*dT*k[5mC]*kT*kG; antisense) [compound 799019]
5. 799038 (kG*kG*kA*d[5mC]*d[5mC]*d[5mC]*d[5mC]*dA*dG*d[5mC]*d[5mC]*dG*d[5mC]*k[5mC]*kA*kG; antisense) [compound 799038]
6. 799158 (antisense kT*kA*kT*dG*dA*dG*dT*dT*dG*dT*dA*dG*dA*kA*kG*kA) [compound 799158]

[70, 43, 0, 36, 19, 33]

# map each substance to its % Inhibition
1. 799079 (antisense kG*kA*kG*dA*dT*d[5mC]*d[5mC]*dA*dG*dG*dA*dG*d[5mC]*kA*kG*kA) [compound 799079]
2. 799018 (k[5mC]*kT*kG*d[5mC]*dA*dA*dA*d[5mC]*d[5mC]*dT*d[5mC]*dT*d[5mC]*kT*kG*k[5mC]; antisense) [compound 799018]
3. 799082 (antisense kG*k[5mC]*k[5mC]*d[5mC]*dA*dT*d[5mC]*dT*d[5mC]*dA*dG*dG*dG*kA*kG*kA) [compound 799082]

1: 46; 2: 29; 3: 27
